# MEASUREMENT TARGET: NADPH oxidase 2 (Homo sapiens) (UniProt P04839)
# Sequence (P04839 whole entry, looked up): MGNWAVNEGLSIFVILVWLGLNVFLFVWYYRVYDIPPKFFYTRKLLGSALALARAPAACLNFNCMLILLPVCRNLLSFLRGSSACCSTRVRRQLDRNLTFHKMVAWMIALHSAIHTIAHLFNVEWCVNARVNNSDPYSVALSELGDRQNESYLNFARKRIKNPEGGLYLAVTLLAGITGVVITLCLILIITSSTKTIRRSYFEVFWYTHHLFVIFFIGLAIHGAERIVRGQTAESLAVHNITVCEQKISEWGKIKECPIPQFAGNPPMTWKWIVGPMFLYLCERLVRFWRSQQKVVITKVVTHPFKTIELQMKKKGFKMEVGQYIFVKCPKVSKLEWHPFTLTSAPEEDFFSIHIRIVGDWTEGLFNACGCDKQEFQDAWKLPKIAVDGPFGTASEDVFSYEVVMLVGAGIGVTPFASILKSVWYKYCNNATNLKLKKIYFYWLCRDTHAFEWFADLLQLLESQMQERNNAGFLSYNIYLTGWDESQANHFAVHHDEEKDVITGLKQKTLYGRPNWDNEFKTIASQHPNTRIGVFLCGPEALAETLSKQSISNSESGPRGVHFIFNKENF
# ASSAY METHOD TEXT: NOX2-dependent H2O2 signal modulators, primary screen, NOX inhibitor project, cell-based, HEK293-NOX2, PMA-stimulated, Amplex Red fluorescence (AID 1159); further: test concentration not given here
# CONDITION DESCRIPTION: 45 min, higher = more signal, called active from +8 up or from −8 down
Calls of active or inactive are those of the source.
Quick reference: z-score of the listed items.

Here are 7 molecules together with their reported answers.
1) COc1ccc(CCNC(=O)[C@@]2(Sc3ccc(C)cc3)CC(=O)N(Cc3cc(C(F)(F)F)cc(C(F)(F)F)c3)[C@@H]2c2ccc(CO)cc2)cc1; -0.626 (inactive)
2) [N-]=[N+]=NCc1ccccc1C[C@@]1(C(=O)O)N=C(c2ccc(OCCCO)cc2)O[C@@H]1c1ccccc1CN=[N+]=[N-]; 0.887 (inactive)
3) COc1ccc(CCNC(=O)[C@@H]2c3ccccc3C(=O)N(CC34CC5CC(CC(C5)C3)C4)[C@H]2c2ccc(CO)cc2)cc1; -2.37 (inactive)
4) O=c1cccc(-c2ccccc2C(F)(F)F)o1; 0.409 (inactive)
5) COc1cc2c(cc1O)C(C1CC1)N(Cc1ccc([N+](=O)[O-])o1)CC2 (stereo not drawn); -4.17 (inactive)
6) CCCCC(=C=CC[C@@H](O)c1cccc(OCCO)c1)C[C@@H](O)COCc1ccccc1; -1.61 (inactive)
7) CN(C)CCCCNC(=O)[C@H]1C[C@H]2C(=O)NCC(=O)N2[C@H]1c1cccc(OCCO)c1; -0.241 (inactive)

Note: attention shifts to another entry.
Given `CN(C)CCCC[C@@H]1NC(=O)[C@H]2C[C@@H](C(=O)NCc3ccc(F)cc3)[C@@H](c3ccc(O)cc3)N2C1=O` , state its recorded z-score.
0.0836 (inactive)
